- TESTED TARGET: CsoR (CsoRSl) wild type (Streptomyces lividans 1326) (UniProt D6EK73)
- EXPERIMENT SUMMARY: ITC
- CONDITION SET: ITC: 10 mM HEPES, 150 mM NaCl, pH 7.5, 25 C, 100 uM DNA into 10 uM CsoR tetramer; EMSA: same buffer, room temperature, 30 min, 6% PAGE in TBE; SEC: same buffer
pKd: −log10 of the molar value.
Please use yes (1) whenever pKd is not below 7, and no (0) whenever it is.

Please indicate if the recorded pKd for TACCCCCTAGGGGTAT (double strand) [copZA1-CON] meets or exceeds 7.
no (0)

Please indicate if the recorded pKd for GCCTTTATACCCCCTAGGGGTAAGGTGGG (double strand) [copZA2-EXT] meets or exceeds 7.
yes (1)

---

- TESTED TARGET: CsoR (CsoRSl) wild type (Streptomyces lividans 1326)
- EXPERIMENT SUMMARY: ITC
- CONDITION SET: apo; reverse titration (protein into DNA), N 0.86; ITC: 10 mM HEPES, 150 mM NaCl, pH 7.5, 25 C, 100 uM DNA into 10 uM CsoR tetramer; EMSA: same buffer, room temperature, 30 min, 6% PAGE in TBE; SEC: same buffer
QUANTITY: pKd
// pKd here means minus log10 of the molar concentration (mol/L)

Given the sequence CGTTGGGTACCCCCTAGGGGTATACATGG (double strand) [copZA1-EXT] , what is its reported pKd?
6.95

---

- TESTED TARGET: CsoR (CsoRSl) wild type (Streptomyces lividans 1326)
- EXPERIMENT SUMMARY: ITC
- CONDITION SET: ITC: 10 mM HEPES, 150 mM NaCl, pH 7.5, 25 C, 100 uM DNA into 10 uM CsoR tetramer; EMSA: same buffer, room temperature, 30 min, 6% PAGE in TBE; SEC: same buffer
In plain terms, low Kd, meaning strictly below 100 nM, gives MET, and everything else gives NOT MET.

Hi there! Is Kd for ATACCCCTGGTGGGTATAT (double strand) [csoR-CON] below 100 nM, do you know?
NOT MET

Hi there! Is Kd for CGTTGGGTACCCCCTAGGGGTATATATGG (double strand) [copZA1-GTA down] below 100 nM, do you know?
MET

Hi there! Is Kd for CGTTGGATACCCCCTAGGGGTATACATGG (double strand) [copZA1-GTA up] below 100 nM, do you know?
MET

Hi there! Is Kd for CGGACAAATACCCCTGGTGGGTATATATGG (double strand) [csoR-EXT] below 100 nM, do you know?
MET

Hi there! Is Kd for TATACCCCCTAGGGGTA (double strand) [copZA2-CON] below 100 nM, do you know?
NOT MET
